The following molecules are shown together with reported IC50 values.
Experiment: Inhibition of bacterial IMP-1 (1 to 246 residues) expressed in Escherichia coli Transetta (DE3) using FC-5 as substrate preincubated with enzyme for 10 mins followed by substrate addition by fluorescence based analysis
Set-up: species or system Bacteria
Reply numerically in µM, unit not repeated.

C=CCCn1c(C)cnc1C(=O)O = 48.6
N#CCCCn1ccnc1C(=O)O = 65.6
O=C(O)c1nccn1Cc1ccc(Cl)c(Cl)c1 = 9.25

Consider the additional molecule presented here.
Record request: IC50 value, item `O=C(O)c1ncc(C2CC2)n1Cc1ccccc1` 110

---

Experiment: Inhibition of bacterial VIM-2 (27 to 266 residues) expressed in Escherichia coli Transetta (DE3) using FC-5 as substrate preincubated with enzyme for 10 mins followed by substrate addition in presence of 100 uM Zn2+ by fluorescence based analysis
Design: species or system Bacteria
# key: entry, value: pIC50
Convention used: pIC50 is expressed as -log10 of the molar concentration.

Which pIC50 is listed for `O=C(O)c1nccn1Cc1cc(Br)cc(Br)c1` ? 6.96

Give the measured pIC50 of `O=C(O)c1nccn1Cc1ccncc1` . 5.76

Consider the compound shown here: `Nc1nc2ccc(Cn3ccnc3C(=O)O)cc2s1` What is its recorded pIC50? 7.12

---

Experiment: Inhibition of bacterial IMP-1 (1 to 246 residues) expressed in Escherichia coli Transetta (DE3) using FC-5 as substrate preincubated with enzyme for 10 mins followed by substrate addition by fluorescence based analysis
Design: species or system Bacteria
pIC50: −log10 of the molar value.
Listing of recorded pIC50 by entry.

O=C(O)c1nccn1Cc1ccccc1 = 4.49
O=C(O)c1nccn1Cc1cccs1 = 4.00
CCC(C)n1ccnc1C(=O)O (stereo not drawn) = < 3.52
COC(=O)C(C)n1ccnc1C(=O)O (stereo not drawn) = < 3.52
O=C(O)c1nccn1C1CC1 = < 3.52
O=C(O)c1ncc(-c2ccccc2)n1Cc1ccccc1 = < 3.52

Need pIC50, item `CCCn1ccnc1C(=O)O` 4.23

Which pIC50 is listed for `O=C(O)c1nccn1Cc1ccncc1` ? < 3.52

---

System: Pseudomonas aeruginosa
Test: Potentiation of meropenem-induced antibacterial activity against Pseudomonas aeruginosa 5621 expressing VIM-2 assessed as fold reduction in meropenem MIC at 100 ug/ml incubated for 18 to 20 hrs by CLSI based broth microtiter dilution method
Format: functional
Conditions: dose 100 µg/ml; time 18-20 hrs
ATTRIBUTE MEASURED: fold change (FC)
# print the numeric value only

Completed entries (count: 5):
NCc1ccc(Cn2ccnc2C(=O)O)cc1 = 2
Nc1nc2c(Cn3ccnc3C(=O)O)cccc2s1 = 1
Nc1nc2ccc(Cn3ccnc3C(=O)O)cc2s1 = 1
O=C(O)c1nccn1Cc1cc(Br)cs1 = 1
O=C(O)c1nccn1Cc1ccccc1 = 1

Now, please, on to the next molecule.
Fill in the blank: the reported fold change (FC) of `O=C(O)c1nccn1Cc1ccncc1` is ____. 2

---

Assay: Inhibition of bacterial VIM-2 (27 to 266 residues) expressed in Escherichia coli Transetta (DE3) using FC-5 as substrate preincubated with enzyme for 10 mins followed by substrate addition by fluorescence based analysis
Set-up: species or system Bacteria
Reported log10 of IC50 is given for each of the following molecules.
# log10 transformed; quantity=IC50; unit=µM

Please review the following examples before continuing.
Cn1nnnc1SCCn1ccnc1C(=O)O = 0.33
COCCn1ccnc1C(=O)O = 1.19
O=C(O)c1nccn1C1CNC1 = 1.83
CC(C)n1ccnc1C(=O)O = 1.00
O=C(O)c1nccn1Cc1ccoc1 = 1.63

Reported log10 of IC50, molecule `O=C(O)c1nccn1C1CC1` : ____ 1.29

Reported log10 of IC50, molecule `O=C(O)c1nccn1Cc1ccncc1` : ____ -0.25

Given the molecule `NCc1ccc(Cn2ccnc2C(=O)O)cc1` , what is its reported log10 of IC50? 0.59

For `O=C(O)c1nccn1Cc1cccc([N+](=O)[O-])c1` , what is its reported log10 of IC50? 0.55

So what does the record say about log10 of IC50 for `CS(=O)(=O)Cn1ccnc1C(=O)O` ? 1.53

If you can, please state the reported log10 of IC50 value of `Cc1cnc(C(=O)O)n1Cc1ccccc1` . -0.32

What log10 of IC50 value was documented for this molecule, `O=C(O)c1nccn1Cc1ccc(Cl)s1` ? 0.51

For `Cc1ccc(Cn2ccnc2C(=O)O)cc1` , what is its reported log10 of IC50? 0.54

---

Assay: Inhibition of bacterial IMP-1 (1 to 246 residues) expressed in Escherichia coli Transetta (DE3) using FC-5 as substrate preincubated with enzyme for 10 mins followed by substrate addition by fluorescence based analysis
Set-up: species or system Bacteria
# IC50 per record follows

N#CCCn1ccnc1C(=O)O = > 300 µM
Nn1ccnc1C(=O)O = > 300 µM
Nc1nc2ccc(Cn3ccnc3C(=O)O)cc2s1 = 14.4 µM
O=C(O)c1nccn1CCO = > 300 µM
CN(C)CCn1ccnc1C(=O)O = > 300 µM

// IC50 lookup, key: `CS(=O)(=O)Cn1ccnc1C(=O)O` > 300 µM

---

Test system: Escherichia coli
Assay: Potentiation of meropenem-induced antibacterial activity against Escherichia coli C1580 expressing VIM-2 assessed as meropenem MIC at 10 ug/ml incubated for 18 to 20 hrs by CLSI based broth microtiter dilution method (reference value: 32 ug/ml)
Assay type: functional
Conditions: dose 10 µg/ml, time 18-20 hrs
Labelling field: enter criterion met if recorded MIC is less than 8 µg/mL. Enter criterion not met if it equals or exceeds that cut-off.

NCc1ccc(Cn2ccnc2C(=O)O)cc1 = criterion not met
O=C(O)c1nccn1Cc1ccc(O)cc1 = criterion met
COc1ccc(Cn2ccnc2C(=O)O)cc1 = criterion met
Cc1cnc(C(=O)O)n1Cc1ccccc1 = criterion met
Nc1nc2c(Cn3ccnc3C(=O)O)cccc2s1 = criterion met

Determine whether this molecule shows MIC lower than 8 µg/mL (ties excluded): `N#Cc1ccc(Cn2ccnc2C(=O)O)cc1` criterion met

is_below(MIC, 8 µg/mL) for `O=C(O)c1nccn1Cc1cc(Br)cs1` ? criterion met

Is the reported MIC for `Nc1nc2ccc(Cn3ccnc3C(=O)O)cc2s1` strictly below 8 µg/mL? criterion met

---

Test: Inhibition of bacterial IMP-1 (1 to 246 residues) expressed in Escherichia coli Transetta (DE3) using FC-5 as substrate preincubated with enzyme for 10 mins followed by substrate addition by fluorescence based analysis
Parameters: species or system Bacteria
Listing: IC50 of selected compounds

NCCCn1ccnc1C(=O)O = > 300 µM
C=CCCn1ccnc1C(=O)O = > 300 µM
CC(C)Cn1ccnc1C(=O)O = > 300 µM
Nc1ccc(Cn2ccnc2C(=O)O)cc1 = > 300 µM
O=C(O)c1nccn1Cc1ccc(O)cc1 = 9.55 µM

State the recorded IC50 for this entry: `Cc1cnc(C(=O)O)n1Cc1ccccc1` 86.5 µM

What value of measured IC50 is listed for CC(C(=O)O)n1ccnc1C(=O)O (stereo not given) ? > 300 µM

What measured IC50 goes with `Cn1cc(Cn2ccnc2C(=O)O)cn1` ? > 300 µM

// returns reported IC50 for input `COc1ccc(Cn2ccnc2C(=O)O)cc1` 10.9 µM

Which IC50 reading was recorded for the compound `NC(=O)Cn1ccnc1C(=O)O` ? > 300 µM

---

Experiment: Inhibition of bacterial IMP-1 (1 to 246 residues) expressed in Escherichia coli Transetta (DE3) using FC-5 as substrate preincubated with enzyme for 10 mins followed by substrate addition by fluorescence based analysis
Design: species or system Bacteria
ATTRIBUTE MEASURED: IC50 (µM)
Use µM as the unit, but write only the number.

Consider the worked cases shown below.
O=C(O)c1nccn1Cc1ccco1 = 10.3
O=C(O)c1nccn1Cc1ccc(Cl)s1 = 111

Can you share its IC50? I mean this compound: `N#Cc1ccc(Cn2ccnc2C(=O)O)cc1` 30.1

Request the reported IC50 associated with `O=C(O)c1nccn1Cc1cc(Br)cs1` 20.3

Please give the measured IC50 for this compound: `O=C(O)c1nccn1Cc1cc(Br)cc(Br)c1` 0.085

State the recorded IC50 for this entry: `O=C(O)c1nccn1Cc1ccc([N+](=O)[O-])cc1` 30.2

May I ask what IC50 has been recorded for `CSCn1ccnc1C(=O)O` ? 114

Record request: IC50 value, item `Cn1nnnc1SCCn1ccnc1C(=O)O` 160

---

Test: Inhibition of bacterial NDM-1 (1 to 270 residues) expressed in Escherichia coli Transetta (DE3) using FC-5 as substrate preincubated with enzyme for 10 mins followed by substrate addition by fluorescence based analysis
Design: species or system Bacteria
pIC50: −log10 of the molar value.
ATTRIBUTE MEASURED: pIC50

CCC(C)n1ccnc1C(=O)O (configuration not stated) = < 3.52

Suppose we examine the compound `Cc1cn(Cc2ccccc2)c(C(=O)O)n1` ; what pIC50 value has been reported? < 3.52

Quick one: pIC50 for `O=C(O)c1nccn1Cc1cccnc1Cl` ? < 3.52

Attribution: ChEMBL document CHEMBL5154646
